Experiment: Determination of the threshold concentration (taste testers, Schutz and Pilgrim method)
Conditions: concentration 1:25000
Exercise: for every item that follows, state its recorded Average Value of Evaluation Points.
In your answer, state the number alone without any accompanying words.

-- ask Looking for the measured Average Value of Evaluation Points of O=C1NS(=O)(=O)c2ccccc21.[Na] [W, Saccharin sodium, reference compound] , can you help?
-- reply 2.2

-- ask Looking for the measured Average Value of Evaluation Points of Cc1cc2c(s1)S(=O)(=O)NC2=O [B] , can you help?
-- reply 2.2

-- ask Looking for the measured Average Value of Evaluation Points of O=C1NS(=O)(=O)c2ccccc21 [V, Saccharin, reference compound] , can you help?
-- reply 2.4

-- ask Looking for the measured Average Value of Evaluation Points of Cc1cc2c(s1)S(=O)(=O)NC2=O.[Ca] [D] , can you help?
-- reply 1.8

-- ask Looking for the measured Average Value of Evaluation Points of Cc1cc2c(o1)S(=O)(=O)NC2=O [A] , can you help?
-- reply 0.2
